# EXPERIMENT_SUMMARY: Absorption spectrum, emission spectrum and extinction coefficient in toluene solution
# Assay type: physicochemical
# Procedure: The extinction coefficients of the compounds and their absorption and emission spectrums in the solution were determined as follows: • 1. […] The absorption spectrum of the solution was measured by using an ultraviolet-visible spectrophotometer (Puxi T9s) to obtain the absorption peak wavelength. • 3. The absorbance of the maximum absorption peak divided by the amount of substance concentration is the molar extinction coefficient of the compound. • 4. […]
Measured Absorption peak of the toluene solution by item
Respond numerically; units are nm and should not be typed.

Consider the following illustrative entries.
[
  {
    "COMPOUND": "CC(C)(C)c1ccc2c(c1)c1cc(C(C)(C)C)cc3c1n2-c1cc(-c2c(-c4ccccc4)cc(-c4ccccc4)cc2-c2ccccc2)cc2c1B3c1cc3c4ccccc4c4ccccc4c3c3c4c5c6ccccc6c6ccccc6c5ccc4n-2c13 [E3]",
    "UNIT_SPEC": "nm",
    "Absorption peak of the toluene solution": 512
  },
  {
    "COMPOUND": "CC1CCC(C(C)C)C(Oc2ccc(-c3cc(C(C)C)ccc3N(c3cc(F)c(F)c(F)c3)c3cc(N(c4cc(F)c(F)c(F)c4)c4ccc(C(C)C)cc4-c4ccc(OC5CC(C)CCC5C(C)C)cc4)c4ccc5c(N(c6cc(F)c(F)c(F)c6)c6ccc(C(C)C)cc6-c6ccc(OC7CC(C)CCC7C(C)C)cc6)cc(N(c6cc(F)c(F)c(F)c6)c6ccc(C(C)C)cc6-c6ccc(OC7CC(C)CCC7C(C)C)cc6)c6ccc3c4c65)cc2)C1 (stereo not drawn) [compound 15]",
    "UNIT_SPEC": "nm",
    "Absorption peak of the toluene solution": 476
  }
]

We now examine a further compound.
What does the data say about its Absorption peak of the toluene solution? Entry: CCCCCCCCc1ccc(-c2c(N(c3cc(F)c(F)c(F)c3)c3cc(N(c4cc(F)c(F)c(F)c4)c4ccc5ccccc5c4-c4ccc(CCCCCCCC)cc4)c4ccc5c(N(c6cc(F)c(F)c(F)c6)c6ccc7ccccc7c6-c6ccc(CCCCCCCC)cc6)cc(N(c6cc(F)c(F)c(F)c6)c6ccc7ccccc7c6-c6ccc(CCCCCCCC)cc6)c6ccc3c4c65)ccc3ccccc23)cc1 [compound 17]
475
